Target: human TLR7 (Homo sapiens)
Construct: host or cells: HEK-Blue cells
Sequence (Q9NYK1 27-1049): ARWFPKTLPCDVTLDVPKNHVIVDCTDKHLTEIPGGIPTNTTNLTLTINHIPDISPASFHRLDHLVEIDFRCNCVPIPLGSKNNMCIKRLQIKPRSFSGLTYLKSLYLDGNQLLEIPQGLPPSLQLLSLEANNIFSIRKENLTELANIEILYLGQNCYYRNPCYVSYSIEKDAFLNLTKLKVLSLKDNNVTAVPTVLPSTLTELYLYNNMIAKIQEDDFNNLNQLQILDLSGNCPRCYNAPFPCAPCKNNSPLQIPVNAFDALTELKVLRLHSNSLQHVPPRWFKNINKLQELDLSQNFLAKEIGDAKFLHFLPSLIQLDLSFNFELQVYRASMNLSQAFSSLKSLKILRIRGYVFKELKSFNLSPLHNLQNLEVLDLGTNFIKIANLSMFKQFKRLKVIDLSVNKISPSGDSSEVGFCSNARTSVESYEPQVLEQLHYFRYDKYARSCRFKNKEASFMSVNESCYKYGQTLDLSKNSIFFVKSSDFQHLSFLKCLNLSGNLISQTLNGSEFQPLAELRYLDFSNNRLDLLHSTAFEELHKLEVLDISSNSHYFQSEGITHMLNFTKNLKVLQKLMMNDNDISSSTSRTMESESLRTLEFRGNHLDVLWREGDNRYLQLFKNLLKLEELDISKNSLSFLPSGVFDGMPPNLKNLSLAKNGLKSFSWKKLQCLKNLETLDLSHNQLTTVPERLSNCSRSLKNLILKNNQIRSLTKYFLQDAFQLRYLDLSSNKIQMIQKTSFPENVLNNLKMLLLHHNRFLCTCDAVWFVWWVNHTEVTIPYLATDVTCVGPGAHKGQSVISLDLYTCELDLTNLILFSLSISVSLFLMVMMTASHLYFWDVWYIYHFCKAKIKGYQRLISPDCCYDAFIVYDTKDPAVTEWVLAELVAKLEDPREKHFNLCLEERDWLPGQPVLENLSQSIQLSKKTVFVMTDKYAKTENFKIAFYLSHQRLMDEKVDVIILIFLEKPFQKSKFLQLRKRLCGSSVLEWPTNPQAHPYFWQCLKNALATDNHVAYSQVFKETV
Experiment: TLR7 inhibition reporter assay (HEK-Blue cells, SEAP reporter, gardiquimod stimulation)
Assay type: cell-based
Settings: HEK-Blue cells overexpressing human TLR7, SEAP reporter, gardiquimod 7.5 μM; read-out: TLR7 IC50
Below, each of the compounds is paired with its reported IC50 value.
quantity-kind: IC50 (nM)

{"columns": ["compound", "result-number"],
 "data": [
  ["Cc1c(-c2[nH]c3sc(C4CCC(N5CC(O)(C(F)(F)F)C5)CC4)nc3c2C(C)C)cn2ncnc2c1C (single isomer, unassigned) [Example 236]", 1.36],
  ["Cc1cc(-c2[nH]c3sc(C4CCC(N5CC6(COC6)C5)CC4)nc3c2C(C)C)cn2ncnc12 (single isomer, unassigned) [Example 137]", 3.4],
  ["COc1cc(-c2[nH]c3sc(C4CCC(NC5(C)CCC5)CC4)nc3c2C(C)C)cn2ncnc12 (single isomer, unassigned) [Example 108]", 1.34],
  ["COc1cc(-c2[nH]c3sc(C4CCN(C5CCOCC5)CC4)nc3c2C(C)C)cn2ncnc12", 1.59],
  ["Cc1c(-c2[nH]c3sc(N4CCN(CCS(C)(=O)=O)C[C@@H]4C)nc3c2C(C)C)cn2ncnc2c1C", 39],
  ["COc1cc(-c2[nH]c3sc(C4CCC(NC5COC5)CC4)nc3c2C(C)C)cn2ncnc12 (single isomer, unassigned) [Example 66]", 3.59],
  ["Cc1c(-c2[nH]c3sc(C4CCC(N(C)CC(C)C)CC4)nc3c2C(C)C)cn2ncnc2c1C (single isomer, unassigned) [Example 229]", 7.1],
  ["Cc1cc(-c2[nH]c3sc(C4CCC(NC56CC(C5)C6)CC4)nc3c2C(C)C)cn2ncnc12 (single isomer, unassigned) [Example 138]", 0.93],
  ["Cc1c(-c2[nH]c3sc(C4CCN(CC(=O)N(C)C)CC4)nc3c2C(C)C)cn2ncnc2c1C", 4.24],
  ["Cc1c(-c2[nH]c3sc(N4CCN(CC(=O)N(C)C)CC4)nc3c2C(C)C)cn2ncnc2c1C", 18.8],
  ["Cc1c(-c2[nH]c3sc(C4CCC(NC5CCS(=O)(=O)C5)CC4)nc3c2C(C)C)cn2ncnc2c1C (racemic) [Example 230]", 4.92],
  ["Cc1c(-c2[nH]c3sc(N4CCN(C(C)C)C[C@@H]4C)nc3c2C(C)C)cn2ncnc2c1C", 8.23],
  ["Cc1cc(-c2[nH]c3sc(C4CCN(CC(C)(C)O)CC4)nc3c2C(C)C)cc(C)n1", 18.4],
  ["CCN(C)C1CCC(c2nc3c(C(C)C)c(-c4cn(C)c5ncccc45)[nH]c3s2)CC1 (single isomer, unassigned) [Example 174]", 1.84],
  ["Cc1cc2ncnn2cc1-c1[nH]c2sc(C3CCC(NC4CCOCC4)CC3)nc2c1C(C)C (single isomer, unassigned) [Example 161]", 18.1],
  ["Cc1c(-c2[nH]c3sc(C4CCC(NCC5(S(C)(=O)=O)CC5)CC4)nc3c2C(C)C)cn2ncnc2c1C (single isomer, unassigned) [Example 215]", 2.3],
  ["CCN(C)C1CCC(c2nc3c(C(C)C)c(-c4cn(C)c(=O)c(C)c4C)[nH]c3s2)CC1 (single isomer, unassigned) [Example 248]", 8.33],
  ["CC(C)c1c(-c2ccc(C#N)c3ncccc23)[nH]c2sc(C3CCN(C4CCOCC4)CC3)nc12", 7.93],
  ["Cc1c(-c2[nH]c3sc(C(=O)N4CCN(S(C)(=O)=O)CC4)nc3c2C(C)C)cn2ncnc2c1C", 39.5],
  ["CC(C)c1c(-c2cn(C)c3ncccc23)[nH]c2sc(C3CCN(C(=O)CN(C)C)CC3)nc12", 3.41],
  ["CNC(=O)CN1CCC(c2nc3c(C(C)C)c(-c4cc(OC)c5ncnn5c4)[nH]c3s2)CC1", 2.47],
  ["Cc1c(-c2[nH]c3sc(CN4CCOCC4)nc3c2C(C)C)cn2ncnc2c1C", 28.6],
  ["Cc1c(-c2[nH]c3sc(C4CCC(N(C)C(C)C)CC4)nc3c2C(C)C)cn2ncnc2c1C (single isomer, unassigned) [Example 223]", 8.65],
  ["Cc1cc(-c2[nH]c3sc(C(=O)N4CCOCC4)nc3c2C(C)C)cn2ncnc12", 137],
  ["Cc1c(-c2[nH]c3sc(N4CCC(NC(C)C)CC4)nc3c2C(C)C)cn2ncnc2c1C", 2.25],
  ["Cc1c(-c2[nH]c3sc(C4CCC(N5CC(F)(F)C5)CC4)nc3c2C(C)C)cn2ncnc2c1C (single isomer, unassigned) [Example 218]", 1.44],
  ["Cc1c(-c2[nH]c3sc(N4CCN(C(=O)CN(C)C)C[C@H]4C)nc3c2C(C)C)cn2ncnc2c1C", 7.5]
]}
